The measured values listed here are drawn from patent US8900593B2.

Biological target: GLP-1 receptor (Homo sapiens)
Construct: expressed in transfected cells; host or cells: HEK293
Sequence (P43220 24-463, species assumed): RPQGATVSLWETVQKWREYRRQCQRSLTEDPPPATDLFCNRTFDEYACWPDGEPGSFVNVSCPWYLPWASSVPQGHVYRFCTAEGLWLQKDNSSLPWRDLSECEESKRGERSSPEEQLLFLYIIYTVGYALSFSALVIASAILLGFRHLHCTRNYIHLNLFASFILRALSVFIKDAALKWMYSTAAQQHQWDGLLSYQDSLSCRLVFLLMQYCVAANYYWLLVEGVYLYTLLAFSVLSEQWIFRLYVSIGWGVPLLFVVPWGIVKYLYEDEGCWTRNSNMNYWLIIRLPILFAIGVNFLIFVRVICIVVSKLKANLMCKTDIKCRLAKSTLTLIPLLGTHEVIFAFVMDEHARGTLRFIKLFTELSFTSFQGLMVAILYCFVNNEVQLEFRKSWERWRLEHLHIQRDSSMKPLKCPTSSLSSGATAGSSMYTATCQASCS
Experiment: Functional assay-cAMP synthesis, luciferase reporter in HEK293 cells co-transfected with GLP-1 receptor
Format: cell-based
Where no end group is shown, it is not given here. [ ]: non-standard residue; d: D form. DMIA = not defined here; Aib = CC(C)(N)C(=O)O
measured-parameter: Parent w/o PEG % Potency Relative to Native GLP-1R (%)
The reply should be a number in %, with the unit left off.

# Parent w/o PEG % Potency Relative to Native GLP-1R of HX2QGT FTSDY SKYLD ERRAK DFVC*W LMNTa (H[Aib]QGTFTSDYSKYLDERRAKDFVCWLMNT-NH2; lactam (positions not given here); also: optional PEG on Cys24) [X2=AIB; C* is Cys or Cys attached to PEG] = 96.9

Query X1SQGT FTSDY SKYLD ERRAK DFVC*W LMNGG PSSGA PPPSa ([DMIA]SQGTFTSDYSKYLDERRAKDFVCWLMNGGPSSGAPPPS-NH2; lactam (positions not given here); not fully specified; reading uncertain) [X1=DMIA; C* is Cys or Cys attached to PEG] yields Parent w/o PEG % Potency Relative to Native GLP-1R of 78.3

So for HX2QGT FTSDY SKYLD EQAAK EFIC*W LMNGG PSSGA PPPSa (H[Aib]QGTFTSDYSKYLDEQAAKEFICWLMNGGPSSGAPPPS-NH2; lactam (positions not given here); also: optional PEG on Cys24) [X2=AIB; C* is Cys or Cys attached to PEG] , the logged Parent w/o PEG % Potency Relative to Native GLP-1R turned out to be 381.5

Reported Parent w/o PEG % Potency Relative to Native GLP-1R of HX2QGT FTSDYSKYLDEQAAKEFIAWLMNGGPSSGAPPPSC*a (H[Aib]QGTFTSDYSKYLDEQAAKEFIAWLMNGGPSSGAPPPSC-NH2; lactam (positions not given here); also: optional PEG on Cys40) [X2=AIB; C* is Cys or Cys attached to PEG] : 169.6

----------
Target: glucagon receptor (Homo sapiens, UniProt P47871)
Construct: expressed in transfected cells; host or cells: HEK293
Sequence (P47871 26-477): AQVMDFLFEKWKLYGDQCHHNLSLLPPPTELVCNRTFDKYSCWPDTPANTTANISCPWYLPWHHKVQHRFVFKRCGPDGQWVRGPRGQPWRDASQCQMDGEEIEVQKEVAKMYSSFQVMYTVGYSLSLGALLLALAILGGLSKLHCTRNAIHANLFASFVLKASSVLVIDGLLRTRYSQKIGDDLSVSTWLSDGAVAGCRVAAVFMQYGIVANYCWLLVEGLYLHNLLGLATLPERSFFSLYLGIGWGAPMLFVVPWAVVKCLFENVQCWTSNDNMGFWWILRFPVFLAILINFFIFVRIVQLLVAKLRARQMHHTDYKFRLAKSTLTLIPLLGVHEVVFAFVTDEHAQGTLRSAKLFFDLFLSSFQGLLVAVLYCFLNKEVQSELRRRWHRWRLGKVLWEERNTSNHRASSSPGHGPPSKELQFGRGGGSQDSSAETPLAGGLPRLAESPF
Assay: Functional assay-cAMP synthesis, luciferase reporter in HEK293 cells co-transfected with glucagon receptor
Assay type: cell-based
Conditions: Table 12; pegylated peptide
Where no end group is shown, it is not given here. [ ]: non-standard residue; d: D form. The star is where a group is joined. Isobutyryl(2-imidazol-4-yl) = CC(C)(C(=O)*)c1c[nH]cn1; PEG = not defined here; Aib = CC(C)(N)C(=O)O
Assignment: determine reported Parent w/PEG % Potency Relative to Native GR for the given substances.
Express the result in % but write the number alone.

Kindly note the recorded Parent w/PEG % Potency Relative to Native GR for HX2QGT FTSDYSKYLDEQAAKEFIAWLMNC*a (H[Aib]QGTFTSDYSKYLDEQAAKEFIAWLMNC-NH2; also: optional PEG on Cys29) [Chimera AIB2, Cys29 (SEQ ID NO: 487), X2=AIB; C* is Cys or Cys attached to PEG] , which is 5.6

In plain terms, X1SQGT FTSDYSKYLD EQAAK EFIAW LMNC*a ([Isobutyryl(2-imidazol-4-yl)]SQGTFTSDYSKYLDEQAAKEFIAWLMNC(PEG)-NH2; reading uncertain) [Chimera DMIA1, Cys29 (SEQ ID NO: 520), X1=DMIA; C* is Cys attached to PEG in the tested form] has a documented Parent w/PEG % Potency Relative to Native GR of 5.3

What the record says about HX2QGT FTSDY SKYLD ERRAK DFVC*W LMNTa (H[Aib]QGTFTSDYSKYLDERRAKDFVCWLMNT-NH2; lactam (positions not given here); also: optional PEG on Cys24) [X2=AIB; C* is Cys or Cys attached to PEG] : Parent w/PEG % Potency Relative to Native GR is 15.8

// Parent w/PEG % Potency Relative to Native GR lookup, substance = HX2QGT FTSDYSKYLDEQAAKEFIAWLMNGGPSSGAPPPSC*a (H[Aib]QGTFTSDYSKYLDEQAAKEFIAWLMNGGPSSGAPPPSC-NH2; also: optional PEG on Cys40) [X2=AIB; C* is Cys or Cys attached to PEG] , result: 0.3
